meta.source: patent US20260008760A1

tgt: human DPP1 enzyme (Homo sapiens, UniProt P53634)
method_summary: Human DPP1 Enzyme IC50 Assay
Format: biochemical
Set-up: was first proteolytically processed into its mature form using recombinant human cathepsin L; purchased R&D Systems
reported_conditions: activated recombinant human DPP1, 400 μM H-Gly-Arg-AMC, 10 minutes pre-incubation at 37° C., pH 6.0; average of n runs; read-out: Avg. IC50 (Human DPP1 enzyme IC50 value ranges)
Sequence (P53634 25-134 limits assumed): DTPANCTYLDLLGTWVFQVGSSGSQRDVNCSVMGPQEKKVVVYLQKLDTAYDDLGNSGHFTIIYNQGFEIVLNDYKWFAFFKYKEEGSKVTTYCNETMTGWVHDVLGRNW
Sequence (P53634 231-394 limits assumed): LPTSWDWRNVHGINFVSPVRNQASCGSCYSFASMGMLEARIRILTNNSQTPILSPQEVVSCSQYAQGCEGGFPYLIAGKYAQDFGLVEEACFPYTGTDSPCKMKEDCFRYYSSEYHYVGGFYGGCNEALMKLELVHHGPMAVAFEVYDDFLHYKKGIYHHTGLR
Sequence (P53634 395-463 limits assumed): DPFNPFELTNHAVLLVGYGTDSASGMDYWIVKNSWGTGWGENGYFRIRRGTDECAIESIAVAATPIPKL
reported_metric: IC50

QUERY: Which measured IC50 belongs to C[C@@H]1NC[C@@H](C(=O)N[C@H](C#N)Cc2ccc(-c3ccc4c(F)nn(C)c4c3)cc2F)OC[C@@H]1O [Compound A166] , tested on human DPP1 enzyme (Homo sapiens, UniProt P53634)?
RESULT: 5 to 15 nM

QUERY: # get_value(readout= IC50, system= human DPP1 enzyme (Homo sapiens, UniProt P53634)) for N#Cc1ccc(C23CCC(C[C@@H](C#N)NC(=O)[C@@H]4CNCCCO4)(CC2)CC3)cc1 [Compound 1]
RESULT: > 15 nM

QUERY: Write down the reported IC50 of CO[C@H]1CCO[C@H](C(=O)N[C@H](C#N)Cc2ccc(-c3ccc4c(n3)CCCN4)cc2)CNC1 [Compound A43] , test system: human DPP1 enzyme (Homo sapiens, UniProt P53634).
RESULT: > 15 nM

QUERY: What measured IC50 is associated with CN1CCN(S(=O)(=O)c2ccc(-c3ccc(C[C@@H](C#N)NC(=O)[C@@H]4CNCCCO4)c(F)c3)cc2)CC1 [Compound 21] on human DPP1 enzyme (Homo sapiens, UniProt P53634)?
RESULT: > 15 nM

QUERY: Provide value of IC50 for this record tested with human DPP1 enzyme (Homo sapiens, UniProt P53634): CO[C@H]1CCO[C@H](C(=O)N[C@H](C#N)Cc2cnc(-c3ccc4c(F)nn(C)c4c3)s2)CNC1 [Compound A170]
RESULT: 5 to 15 nM

QUERY: Record Cn1c(=O)oc2cc3c(cc21)-c1cc(F)c(CC(C#N)NC(=O)[C@@H]2CNCCCCO2)cc1OC3 (single isomer, unassigned) [Compound C6] : what is its IC50 with human DPP1 enzyme (Homo sapiens, UniProt P53634)?
RESULT: > 15 nM

QUERY: # get_value(readout= IC50, system= human DPP1 enzyme (Homo sapiens, UniProt P53634)) for N#C[C@H](Cc1ccc(NC(=O)c2csc(-c3cscn3)n2)cc1)NC(=O)[C@@H]1CNCCCO1 [Compound D7]
RESULT: > 15 nM

QUERY: Any idea what IC50 came out for N#C[C@H](Cc1ccc(-c2cc3c(O)ccnn3c2)cc1)NC(=O)[C@@H]1CNCCCO1 [Compound A15] on human DPP1 enzyme (Homo sapiens, UniProt P53634)?
RESULT: > 15 nM

QUERY: Form entry - test system: human DPP1 enzyme (Homo sapiens, UniProt P53634); read-out: IC50; compound: N#C[C@H](Cc1ccc(C23CC(C#N)(C2)C3)cc1)NC(=O)[C@@H]1CNCCCO1 [Compound 3]
RESULT: > 15 nM

QUERY: Fill in the recorded IC50 for this compound, with human DPP1 enzyme (Homo sapiens, UniProt P53634) as test system: Cc1cn2c3c(cc2c(C)n1)-c1cc(F)c(C[C@@H](C#N)NC(=O)[C@@H]2CNCCCO2)cc1OC3 [Compound C10]
RESULT: > 15 nM

QUERY: Query IC50 on human DPP1 enzyme (Homo sapiens, UniProt P53634) for Cn1ncc2cc3c(cc21)-c1cc(F)c(C[C@@H](C#N)NC(=O)[C@@H]2CNCCCO2)cc1OC3 [Compound C33]
RESULT: < 5 nM

* * *

What inhibition at 0.01 µM was measured for each of the following?
tgt: human DPP1 enzyme (Homo sapiens, UniProt P53634)
method_summary: Human DPP1 Enzyme Single-Point Percent Inhibition Testing (HL-60 lysate)
Format: biochemical
Parameters: A crude lysate of HL-60 cells (ATCC; Manassas, VA) was used as a source of human DPP1 enzyme; host or cells: HL-60 cells (crude lysate)
reported_conditions: final compound concentration of 10 nM, 400 μM H-Gly-Arg-AMC, n = 1
Sequence (P53634 25-463): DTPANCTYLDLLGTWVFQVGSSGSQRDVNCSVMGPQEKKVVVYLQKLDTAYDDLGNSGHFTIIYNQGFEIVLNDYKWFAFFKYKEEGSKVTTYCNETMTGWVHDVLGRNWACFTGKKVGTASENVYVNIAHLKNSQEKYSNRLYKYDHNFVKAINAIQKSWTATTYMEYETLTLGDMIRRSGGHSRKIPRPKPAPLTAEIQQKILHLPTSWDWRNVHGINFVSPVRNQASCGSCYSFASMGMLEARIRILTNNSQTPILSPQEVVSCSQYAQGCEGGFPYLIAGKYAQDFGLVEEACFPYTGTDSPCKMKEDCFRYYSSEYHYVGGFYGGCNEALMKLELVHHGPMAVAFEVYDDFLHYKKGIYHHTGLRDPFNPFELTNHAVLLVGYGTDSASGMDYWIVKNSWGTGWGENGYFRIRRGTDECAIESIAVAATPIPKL

QUERY: Given the entry C[C@@H]1NC[C@@H](C(=O)N[C@H](C#N)Cc2ccc(-c3ccn4ccnc4c3)cc2)OC[C@H]1O [Compound H42] , report its measured inhibition at 0.01 µM.
RESULT: ≥ 66.7%

QUERY: # inhibition at 0.01 µM lookup, item CO[C@H]1CCO[C@H](C(=O)N[C@H](C#N)Cc2ccc(-c3ccc4c(c3)C3(CC4)CCN(C)CC3)cc2F)CNC1 [Compound F24]
RESULT: ≥ 66.7%

QUERY: Request the reported inhibition at 0.01 µM associated with CO[C@@H]1CCNC[C@@H](C(=O)N[C@H](C#N)Cc2ccc(-c3ccc4nnn(C)c4c3)cc2F)OC1 [Compound H8]
RESULT: ≥ 66.7%

QUERY: Look up inhibition at 0.01 µM: C[C@@H]1NC[C@@H](C(=O)N[C@H](C#N)Cc2ccc(-c3ccn4ccnc4c3)cc2)OC[C@@H]1O [Compound H43]
RESULT: ≤ 40%

QUERY: Bench note: what inhibition at 0.01 µM did COC1CNC[C@@H](C(=O)N[C@H](C#N)Cc2ccc(-c3cc4c(C)nc(C)cn4c3)cc2F)OC1 (stereo partly drawn) [Compound A88] show?
RESULT: ≥ 66.7%

QUERY: What measured inhibition at 0.01 µM goes with CCN1C(=O)Cc2ccc(-c3ccc(C[C@@H](C#N)NC(=O)[C@@H]4CNCC[C@@H](OC)CO4)cc3)cc21 [Compound G1] ?
RESULT: ≥ 66.7%

QUERY: If you can, please state the reported inhibition at 0.01 µM value of C[C@@H]1NC[C@@H](C(=O)N[C@H](C#N)Cc2ccc(-c3cnc4c(n3)CCCC4)cc2)OC[C@@H]1O [Compound A108] .
RESULT: ≤ 40%

QUERY: May I ask what inhibition at 0.01 µM has been recorded for COC1CNC[C@@H](C(=O)N[C@H](C#N)Cc2ccc(-c3cnc4c(n3)CCCC4)cc2F)OC1 (stereo partly drawn) [Compound A91] ?
RESULT: ≥ 66.7%

QUERY: Recorded inhibition at 0.01 µM for C[C@@H]1NC[C@@H](C(=O)N[C@H](C#N)Cc2ccc(-c3ccc4c(n3)CCCN4)cc2F)OC[C@H]1O [Compound A101] , please?
RESULT: ≥ 66.7%
